# EXPERIMENTAL_SYSTEM: Human dihydroorotate dehydrogenase (DHODH) (Homo sapiens, UniProt Q02127)
# Sequence (Q02127 whole entry): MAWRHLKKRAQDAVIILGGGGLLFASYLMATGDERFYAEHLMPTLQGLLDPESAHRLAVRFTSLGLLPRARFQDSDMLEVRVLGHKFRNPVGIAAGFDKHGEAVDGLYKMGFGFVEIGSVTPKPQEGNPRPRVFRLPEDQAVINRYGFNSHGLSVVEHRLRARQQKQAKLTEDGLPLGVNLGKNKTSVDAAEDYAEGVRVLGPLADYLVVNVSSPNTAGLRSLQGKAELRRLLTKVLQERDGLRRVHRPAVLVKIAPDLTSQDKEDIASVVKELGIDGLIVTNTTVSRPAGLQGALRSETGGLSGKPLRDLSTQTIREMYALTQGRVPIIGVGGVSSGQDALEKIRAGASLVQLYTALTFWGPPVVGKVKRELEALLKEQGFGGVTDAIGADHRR
# ASSAY_NOTES: In vitro DHODH enzyme inhibition assay
# Format: biochemical
# CONDITION_DESCRIPTION: read-out: Inhibition (%) at 10 μmol/L
Assign class by inhibition at 10 µM: not lower than 90% means condition met; lower than 90% means condition not met.

                         compound_structure        label_value
0  C/C(=C\c1cc2ccccc2n1C)C(=O)Nc1ccccc1C(=O)O  condition not met
1  C/C(=C\c1ccc2ccccc2c1Br)C(=O)Nc1ccc(F)cc1C(=O)O      condition met
2  C/C(=C\c1ccc2ccccc2c1Cl)C(=O)Nc1ccc(F)cc1C(=O)O      condition met
3  C/C(=C\c1ccc2ccccc2c1)C(=O)Nc1ccncc1C(=O)O  condition not met
4      C/C(=C\c1ccccc1)C(=O)Nc1ccccc1C(=O)O  condition not met

* * *

# ASSAY_NOTES: In vivo single dose PK study in rats
# CONDITION_DESCRIPTION: male, Sprague-Dawley, rat, plasma, iv, 1 mg/kg
VALUE_KIND: AUC

In [3]: df
Out[3]:
                         compound_structure  value_kind   meas_value
0  C/C(=C\c1ccc2ccccc2c1Cl)C(=O)Nc1ccc(F)cc1C(=O)O         AUC  381 µg·h/mL

* * *

# EXPERIMENTAL_SYSTEM: Human dihydroorotate dehydrogenase (DHODH) (Homo sapiens, UniProt Q02127)
# ASSAY_NOTES: In vitro DHODH enzyme inhibition assay
# Format: biochemical
# CONDITION_DESCRIPTION: read-out: Inhibition (%) at 10 μmol/L
VALUE_KIND: inhibition at 10 µM

In [3]: df
Out[3]:
                          compound_structure                       experimental_system           value_kind  meas_value
 0  C/C(=C\c1ccc2ccccc2c1F)C(=O)Nc1ccc(F)cc1C(=O)O  Human dihydroorotate dehydrogenase (DHODH) (Homo sapiens, UniProt Q02127)  inhibition at 10 µM         98%
 1  C/C(=C\c1ccc(C(F)(F)F)cc1)C(=O)Nc1ccccc1C(=O)O  Human dihydroorotate dehydrogenase (DHODH) (Homo sapiens, UniProt Q02127)  inhibition at 10 µM       82.3%
 2  C/C(=C\c1cccc(Oc2ccccc2)c1)C(=O)Nc1ccccc1C(=O)O  Human dihydroorotate dehydrogenase (DHODH) (Homo sapiens, UniProt Q02127)  inhibition at 10 µM       89.5%
 3  C/C(=C\c1ccc(C(C)(C)C)cc1)C(=O)Nc1ccccc1C(=O)O  Human dihydroorotate dehydrogenase (DHODH) (Homo sapiens, UniProt Q02127)  inhibition at 10 µM       86.6%
 4  COc1ccc(NC(=O)/C(C)=C/c2ccc3ccccc3c2)c(C(=O)O)c1  Human dihydroorotate dehydrogenase (DHODH) (Homo sapiens, UniProt Q02127)  inhibition at 10 µM       48.2%
 5  C/C(=C\c1ccc2c(c1)CCCC2)C(=O)Nc1ccccc1C(=O)O  Human dihydroorotate dehydrogenase (DHODH) (Homo sapiens, UniProt Q02127)  inhibition at 10 µM       85.2%
 6  C/C(=C\c1ccc2c(c1)CCC2)C(=O)Nc1ccccc1C(=O)O  Human dihydroorotate dehydrogenase (DHODH) (Homo sapiens, UniProt Q02127)  inhibition at 10 µM       86.9%
 7  C/C(=C\c1ccc(Cl)c(C(F)(F)F)c1)C(=O)Nc1ccccc1C(=O)O  Human dihydroorotate dehydrogenase (DHODH) (Homo sapiens, UniProt Q02127)  inhibition at 10 µM       84.6%
 8  C/C(=C\c1ccc(C)c(Cl)c1)C(=O)Nc1ccccc1C(=O)O  Human dihydroorotate dehydrogenase (DHODH) (Homo sapiens, UniProt Q02127)  inhibition at 10 µM         91%
 9  C/C(=C\c1cc(Cl)cc(Cl)c1)C(=O)Nc1ccccc1C(=O)O  Human dihydroorotate dehydrogenase (DHODH) (Homo sapiens, UniProt Q02127)  inhibition at 10 µM       89.4%
10  COc1ccc2cc(/C=C(\C)C(=O)Nc3ccccc3C(=O)O)ccc2c1  Human dihydroorotate dehydrogenase (DHODH) (Homo sapiens, UniProt Q02127)  inhibition at 10 µM       88.2%
11  C/C(=C\c1ccc(Oc2ccccc2)cc1)C(=O)Nc1ccccc1C(=O)O  Human dihydroorotate dehydrogenase (DHODH) (Homo sapiens, UniProt Q02127)  inhibition at 10 µM       90.4%
12  C/C(=C\c1ccc2c(Cl)cccc2c1)C(=O)Nc1ccccc1C(=O)O  Human dihydroorotate dehydrogenase (DHODH) (Homo sapiens, UniProt Q02127)  inhibition at 10 µM       96.8%
13  C/C(=C\c1ccc2ccccc2c1)C(=O)Nc1ccc(C)cc1C(=O)O  Human dihydroorotate dehydrogenase (DHODH) (Homo sapiens, UniProt Q02127)  inhibition at 10 µM       82.9%
14  O=C(Nc1ccccc1C(=O)O)/C(Br)=C/c1ccc2ccccc2c1  Human dihydroorotate dehydrogenase (DHODH) (Homo sapiens, UniProt Q02127)  inhibition at 10 µM       88.6%
15  C/C(=C\c1ccc2ccccc2c1)C(=O)Nc1ccc(F)cc1C(=O)O  Human dihydroorotate dehydrogenase (DHODH) (Homo sapiens, UniProt Q02127)  inhibition at 10 µM         90%
16      O=C(COc1ccc2ccccc2c1)Nc1ccccc1C(=O)O  Human dihydroorotate dehydrogenase (DHODH) (Homo sapiens, UniProt Q02127)  inhibition at 10 µM       76.1%
17   O=C(/C=C/c1ccc2ccccc2c1)Nc1ccccc1C(=O)O  Human dihydroorotate dehydrogenase (DHODH) (Homo sapiens, UniProt Q02127)  inhibition at 10 µM       87.5%

* * *

# EXPERIMENTAL_SYSTEM: Human dihydroorotate dehydrogenase (DHODH) (Homo sapiens)
# ASSAY_NOTES: In vitro DHODH enzyme inhibition assay
# Format: biochemical
# CONDITION_DESCRIPTION: read-out: Inhibition (%) at 10 μmol/L
VALUE_KIND: inhibition at 10 µM (%)

In [3]: df
Out[3]:
                                   compound  endpoint_unit  meas_value
0  O=C(COc1ccc([N+](=O)[O-])cc1)Nc1ccccc1C(=O)O [Compound 9]              %        45.3
1  C/C(=C\c1ccc2ccccc2c1Br)C(=O)Nc1ccccc1C(=O)O [Compound 30]              %        90.2
2  C/C(=C\c1ccc2ccccc2c1Cl)C(=O)Nc1ccccc1C(=O)O [Compound 29]              %        96.4
3  CC(C)(Oc1ccc2ccccc2c1)C(=O)Nc1ccccc1C(=O)O [Compound 37]              %        20.3
4  C/C(=C\c1ccc2cc(Br)ccc2c1)C(=O)Nc1ccccc1C(=O)O [Compound 26]              %        85.4
5  C/C(=C\c1ccc2ccccc2c1)C(=O)Nc1cc(F)ccc1C(=O)O [Compound 43]              %        34.9
6  C/C(=C\c1ccc2ccccc2c1)C(=O)Nc1ccccc1C(N)=O [Compound 51]              %        66.9
7  O=C(COc1ccccc1)Nc1ccccc1C(=O)O [Compound 10]              %        31.7
8  C/C(=C\c1ccc2ccccc2c1F)C(=O)Nc1ccccc1C(=O)O [Compound 28]              %        89.3

* * *

// IC50 lookup, one value per entry
# EXPERIMENTAL_SYSTEM: Human dihydroorotate dehydrogenase (DHODH) (Homo sapiens)
VALUE_KIND: IC50

                         compound_structure  meas_value
0  COc1ccc(/C=C(\C)C(=O)Nc2ccccc2C(=O)O)cc1OC      612 nM
1  C/C(=C\c1ccc2ccccc2c1)C(=O)Nc1ccccc1C(=O)O       75 nM
2  C/C(=C\c1ccc2ccccc2c1)C(=O)Nc1ccc(Br)cc1C(=O)O     1820 nM

* * *

The following compounds each carry a recorded log10 IC50 for Human dihydroorotate dehydrogenase (DHODH) (Homo sapiens).
VALUE_KIND: log10 IC50 (log10 of the value in nM)

                                    compound  meas_value
 0  C/C(=C\c1ccc(-c2ccccc2)cc1)C(=O)Nc1ccccc1C(=O)O [Compound 33]        2.80
 1  C/C(=C\c1ccc(C(C)(C)C)cc1)C(=O)Nc1ccccc1C(=O)O [Compound 15]        2.92
 2  C/C(=C\c1cc(Cl)cc(Cl)c1)C(=O)Nc1ccccc1C(=O)O [Compound 21]        2.86
 3  COc1ccc(/C=C(\C)C(=O)Nc2ccccc2C(=O)O)cc1 [Compound 14]        2.75
 4  C/C(=C\c1ccc(C)c(Cl)c1)C(=O)Nc1ccccc1C(=O)O [Compound 17]        2.58
 5  O=C(Nc1ccccc1C(=O)O)/C(Br)=C/c1ccc2ccccc2c1 [Compound 40]        1.93
 6  C/C(=C\c1ccc2ccccc2c1)C(=O)Nc1ccc(C)cc1C(=O)O [Compound 46]        2.84
 7  C/C(=C\c1ccc(C)c(C)c1)C(=O)Nc1ccccc1C(=O)O [Compound 16]        2.60
 8  C/C(=C\c1ccc2ccccc2c1)C(=O)Nc1ccc(Cl)cc1C(=O)O [Compound 44]        2.79
 9  C/C(=C\c1ccc2ccccc2c1Br)C(=O)Nc1ccccc1C(=O)O [Compound 30]        1.76
10  C/C(=C\c1ccc2c(c1)CCC2)C(=O)Nc1ccccc1C(=O)O [Compound 22]        2.40
11  C/C(=C\c1ccc(C(F)(F)F)nc1)C(=O)Nc1ccccc1C(=O)O [Compound 13]        3.79
12  C/C(=C\c1ccc(C(F)(F)F)cc1)C(=O)Nc1ccccc1C(=O)O [Compound 12]        3.02
13  CC/C(=C\c1ccc2ccccc2c1)C(=O)Nc1ccccc1C(=O)O [Compound 41]        2.78
14  C/C(=C\c1ccc(Cl)c(Cl)c1)C(=O)Nc1ccccc1C(=O)O [Compound 19]        2.72
15  O=C(/C=C/c1ccc2ccccc2c1)Nc1ccccc1C(=O)O [Compound 38]        2.85
16  O=C(COc1ccc2ccccc2c1)Nc1ccccc1C(=O)O [Compound 36]        3.27
17  C/C(=C\c1ccc2c(c1)CCCC2)C(=O)Nc1ccccc1C(=O)O [Compound 23]        2.06
